experiment: Fluorescence quantum yields (corrected emission spectra, relative to TPP); type: physicochemical; conditions: excitation wavelength 355 nm, emission 550-800 nm
Parameter: Quantum yield of fluorescence, relative to TPP = 0.11. Scope: all listed entries.
Field format: numeric only.

Consider the following illustrative entries.
{"SMILES_STRUCTURE": "C=CCCOCCCCCCCCCCCCCCCCOc1ccc(-c2c3nc(c(-c4cc(OCCCCCCCCCCCCCCCC)c(OCCCCCCCCCCCCCCCC)c(OCCCCCCCCCCCCCCCC)c4)c4ccc([n-]4)c(-c4cc(OCCCCCCCCCCCCCCCC)c(OCCCCCCCCCCCCCCCC)c(OCCCCCCCCCCCCCCCC)c4)c4nc(c(-c5cc(OCCCCCCCCCCCCCCCC)c(OCCCCCCCCCCCCCCCC)c(OCCCCCCCCCCCCCCCC)c5)c5ccc2[n-]5)C=C4)C=C3)cc1.[Zn+2]", "VALUE_REPORTED": 0.03}
{"SMILES_STRUCTURE": "C=CCCOCCCCCCCCCCCCOc1ccc(-c2c3nc(c(-c4cc(OCCCCCCCCCC)c(OCCCCCCCCCC)c(OCCCCCCCCCC)c4)c4ccc([n-]4)c(-c4cc(OCCCCCCCCCC)c(OCCCCCCCCCC)c(OCCCCCCCCCC)c4)c4nc(c(-c5cc(OCCCCCCCCCC)c(OCCCCCCCCCC)c(OCCCCCCCCCC)c5)c5ccc2[n-]5)C=C4)C=C3)cc1.[Zn+2]", "VALUE_REPORTED": 0.04}

Here is another compound to look at.
Query: For the compound `C=CCCOCCCCCCCCCCCCOc1ccc(-c2c3nc(c(-c4cc(OCCCCCCCCCCCCCCCC)c(OCCCCCCCCCCCCCCCC)c(OCCCCCCCCCCCCCCCC)c4)c4ccc([n-]4)c(-c4cc(OCCCCCCCCCCCCCCCC)c(OCCCCCCCCCCCCCCCC)c(OCCCCCCCCCCCCCCCC)c4)c4nc(c(-c5cc(OCCCCCCCCCCCCCCCC)c(OCCCCCCCCCCCCCCCC)c(OCCCCCCCCCCCCCCCC)c5)c5ccc2[n-]5)C=C4)C=C3)cc1.[Zn+2]` , what Quantum yield of fluorescence, relative to TPP = 0.11 is on record?
Response: 0.04

----------
Experiment: Fluorescence quantum yields (corrected emission spectra, relative to TPP)
Type: physicochemical
Conditions: excitation wavelength 355 nm, emission 550-800 nm
Description: Mass spectra were recorded on a Finnigan MAT TSQ 700 triple quadrupole mass spectrometer equipped with an electrospray interface (FAB-MS). […] FAB-MS spectra were obtained using a 3-nitrobenzyl alcohol (NOBA) matrix. ^1H-NMR spectra were measured at 60 MHz on a Jeol JNM-PMX60 spectrometer, at 270 MHz on a Jeol EX 270 spectrometer and at 300 MHx on a Varian Gemini-300 spectrometer in CDCl3 using TMS as an internal reference. […]
MEASURED_ENDPOINT: Quantum yield of fluorescence, relative to TPP = 0.11

{"SMILES_STRUCTURE": "C=CCCOCCCCCCOc1ccc(-c2c3nc(c(-c4cc(OCCCCCCCCCCCCCCCC)c(OCCCCCCCCCCCCCCCC)c(OCCCCCCCCCCCCCCCC)c4)c4ccc([n-]4)c(-c4cc(OCCCCCCCCCCCCCCCC)c(OCCCCCCCCCCCCCCCC)c(OCCCCCCCCCCCCCCCC)c4)c4nc(c(-c5cc(OCCCCCCCCCCCCCCCC)c(OCCCCCCCCCCCCCCCC)c(OCCCCCCCCCCCCCCCC)c5)c5ccc2[n-]5)C=C4)C=C3)cc1.[Zn+2]", "VALUE_REPORTED": 0.04}
{"SMILES_STRUCTURE": "C=CCCOCCCCCCOc1ccc(-c2c3nc(c(-c4cc(OCCCCCC)c(OCCCCCC)c(OCCCCCC)c4)c4ccc([n-]4)c(-c4cc(OCCCCCC)c(OCCCCCC)c(OCCCCCC)c4)c4nc(c(-c5cc(OCCCCCC)c(OCCCCCC)c(OCCCCCC)c5)c5ccc2[n-]5)C=C4)C=C3)cc1.[Zn+2]", "VALUE_REPORTED": 0.04}
{"SMILES_STRUCTURE": "C=CCCOCCCCCCOc1ccc(-c2c3nc(c(-c4cc(OCCCCCCCCCC)c(OCCCCCCCCCC)c(OCCCCCCCCCC)c4)c4ccc([n-]4)c(-c4cc(OCCCCCCCCCC)c(OCCCCCCCCCC)c(OCCCCCCCCCC)c4)c4nc(c(-c5cc(OCCCCCCCCCC)c(OCCCCCCCCCC)c(OCCCCCCCCCC)c5)c5ccc2[n-]5)C=C4)C=C3)cc1.[Mg+2]", "VALUE_REPORTED": 0.14}
{"SMILES_STRUCTURE": "C=CCCOCCCCCCCCCCCCOc1ccc(-c2c3nc(c(-c4cc(OCCCCCC)cc(OCCCCCC)c4)c4ccc([n-]4)c(-c4cc(OCCCCCC)cc(OCCCCCC)c4)c4nc(c(-c5cc(OCCCCCC)cc(OCCCCCC)c5)c5ccc2[n-]5)C=C4)C=C3)cc1.[Zn+2]", "VALUE_REPORTED": 0.04}
{"SMILES_STRUCTURE": "C=CCCOCCCCCCCCCCCCCCCCOc1ccc(C2=c3ccc4[n]3[Zn][n]3c(ccc3C(c3cc(OCCCCCCCCCC)c(OCCCCCCCCCC)c(OCCCCCCCCCC)c3)=C3C=CC(=N3)C=4c3cc(OCCCCCCCCCC)c(OCCCCCCCCCC)c(OCCCCCCCCCC)c3)C(c3cc(OCCCCCCCCCC)c(OCCCCCCCCCC)c(OCCCCCCCCCC)c3)=C3C=CC2=N3)cc1", "VALUE_REPORTED": 0.04}
